Target: T1, 16mer biotinylated human IL-13 peptide number 24 (human, N-terminal biotin; C-terminal amide)
T1 construct: format Biotin-SGSG-PEPTIDE-amide; also called Peptide 24
T1 peptide: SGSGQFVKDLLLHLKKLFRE
Assay: BIAcore analysis 3, antibody over biotinylated peptide on SA chip
Would you kindly list Kd for each of these binders?
Write down the value, and be sure its unit follows.

Illustrative cases are given below, each with its answer.
binder	Kd
monoclonal antibody 6A1 (antibody, IgG1, V domains shown, also called 6A1 parental mAb; parental mouse mAb 6A1) VH: EIQLQQSVAELVRPGASVRLSCTASGFYIKDTYMHWVIQRPEQGLEWIGTIDPANGNTKYVPKFQGKATITADTSSNTAYLRLSSLTSEDTAIYYCARSIYDDYHYDDYYAMDYWGQGTSVTVSS VL: DVLMTQTPLSLPVSLGDQASISCRSSQNIVHINGNTYLEWYLQKPGQSPKLLIYKISDRFSGVPDRFSGSGSGTDFTLKISRVEAEDLGVYYCFQGSHVPWTFGGGTKLEIK	3.11 nM
L1+A1 (antibody, human IgG1, kappa, V domains shown, Humanised 6A1, VH construct A1 and VL construct L1, human gamma1 wild type / kappa constant regions; also called A1L1; humanised anti-IL-13 mAb L1+A1) VH: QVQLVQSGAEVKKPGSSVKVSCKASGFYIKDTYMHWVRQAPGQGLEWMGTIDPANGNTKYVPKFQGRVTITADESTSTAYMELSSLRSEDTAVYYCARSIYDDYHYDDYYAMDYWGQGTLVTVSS VL: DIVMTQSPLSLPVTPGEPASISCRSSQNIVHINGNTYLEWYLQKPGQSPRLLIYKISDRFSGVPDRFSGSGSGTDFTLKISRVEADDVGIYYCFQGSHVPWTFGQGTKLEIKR	9.03 nM
L2+A1 (antibody, human IgG1, kappa, V domains shown, Humanised 6A1, VH construct A1 and VL construct L2; also called A1L2) VH: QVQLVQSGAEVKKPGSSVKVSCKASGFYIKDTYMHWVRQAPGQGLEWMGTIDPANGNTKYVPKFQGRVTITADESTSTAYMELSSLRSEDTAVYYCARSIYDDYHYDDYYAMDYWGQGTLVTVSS VL: DIVMTQSPLSLPVTPGEPASISCRSSQNIVHINGNTYLEWYLQKPGQSPRLLIYKISDRFSGVPDRFSGSGSGTDFTLKISRVEADDVGVYYCFQGSHVPWTFGQGTKLEIKR	9.35 nM

According to the records, this binder chimaeric 6A1 (antibody, human IgG1, V domains shown, Parent murine 6A1 V regions on human IgG1/k wild type C regions, expressed in CHO cells; also called 6A1c; 6A1 chimaeric antibody) VH: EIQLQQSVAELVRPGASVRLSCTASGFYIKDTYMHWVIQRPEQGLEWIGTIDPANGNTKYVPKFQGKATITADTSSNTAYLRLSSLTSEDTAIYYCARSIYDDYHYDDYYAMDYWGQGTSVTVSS VL: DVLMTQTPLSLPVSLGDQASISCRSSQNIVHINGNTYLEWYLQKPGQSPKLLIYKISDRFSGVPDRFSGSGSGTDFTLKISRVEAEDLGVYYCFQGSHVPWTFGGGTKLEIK displays Kd of 3.58 nM
